Assay: Half life in human at 0.5 mg/kg, iv
Type: ADME, organism-based
Conditions: in vivo
readout: half-life
Number first, unit second: that is the form wanted.

The compound "C/C=C1\NC(=O)[C@H]2CSSCC/C=C/[C@H](CC(=O)N[C@H](C(C)C)C(=O)N2)OC(=O)[C@H](C(C)C)NC1=O" showed half-life equal to 3 h
